Target: Beta-2 adrenergic receptor (Cavia porcellus)
Assay: Tested for beta-2-adrenergic blocking effect by measuring the ability to inhibit the relaxing effect of epinephrine on the isolated tracheal muscle of guinea pigs
Metric Name: IC50 (nM)
Form entry: value (nM) — number only.

So what does the record say about IC50 for COCCc1ccc(OC(F)(F)[C@@H](O)CNC(C)C)cc1 ?
2150
